assay: Binding affinity towards dopamine D2 receptor using radiolabeled ligand [3H]spiperone
property.label: pKi
Remember, pKi is on a log scale: it is -log10 of the molar concentration.

(Q) Given the molecule O=C1C(c2ccc(F)cc2)COC12CCN(Cc1ccccc1)CC2 (single isomer, unassigned; (-)) , what is its reported pKi?
(A) 7.33

###

target: Sigma non-opioid intracellular receptor 1 (Homo sapiens); experiment: Binding affinity for sigma receptor using [3H]-(+)-SKF- 10,047
Sequence (Q99720 whole entry): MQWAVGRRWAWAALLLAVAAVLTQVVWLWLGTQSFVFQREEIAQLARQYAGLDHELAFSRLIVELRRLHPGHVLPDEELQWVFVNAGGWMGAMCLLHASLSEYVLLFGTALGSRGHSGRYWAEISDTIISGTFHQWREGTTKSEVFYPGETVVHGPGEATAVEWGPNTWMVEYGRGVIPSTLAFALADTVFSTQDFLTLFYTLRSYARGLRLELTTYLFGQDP
property.label: pKi
Answer as the number alone; pKi is minus log10 of concentration in mol/L.

>  <molecule>
O=C1C=C(c2ccccc2)OC2(CCN(CCc3ccccc3)CC2)C1

>  <measurement.target>
Sigma non-opioid intracellular receptor 1 (Homo sapiens)

>  <value>
8.00

$$$$

(Q) Fill in: pKi of CN(C)CC1(C)CC(=O)C(c2ccccc2)=CO1 (single isomer, unassigned; (-)) is ___
(A) 6.45

(Q) What do we get for `CN1CCC2(CC1)CC(=O)C(c1ccc(F)cc1)=CO2` ?
(A) 5.14

(Q) And `COc1ccc(C2=COC3(CCN(CCc4ccccc4)CC3)CC2=O)cc1` ?
(A) 7.52

(Q) What about `CN1CCC2(CC1)CC(=O)C(c1ccccc1)=CO2` ?
(A) 5.16

(Q) Subsequent entry: `O=C1CC2(CCN(CCc3ccccc3)CC2)OC=C1c1cccs1`
(A) 8.15

(Q) Also, CN1C2CCC1CC1(CC(=O)C(c3ccccc3)=CO1)C2 (single isomer, unassigned; (-)) please.
(A) 5.74

(Q) Next up: O=C1CC2(CN3CCC2CC3)OC=C1c1ccccc1 (stereo not given)
(A) 5.80

(Q) Further, for `O=C1C=C(c2ccco2)OC2(CCN(CCc3ccccc3)CC2)C1` ?
(A) 7.15

(Q) Now the molecule O=C1CC2(CCCN(Cc3ccccc3)C2)OC=C1c1ccccc1 (single isomer, unassigned; (-))
(A) 7.89

###

molecular target: Glutamate NMDA receptor; experiment: Binding affinity towards PCP receptor in rat brain membrane using radiolabeled ligand [3H]TCP (1-[1-(2-thienyl)cyclohexyl]piperidine) was determined; type: cell membranes
property.label: Ki (µM)
The answer is to be given in µM; state only the numeric part.

Worked examples, 3 molecules total:
>  <molecule>
O=C1CC2(CCN(CCc3ccccc3)CC2)OC=C1c1ccccc1F

>  <measure.unit>
µM

>  <Ki>
30

$$$$
>  <molecule>
O=C1C(c2ccc(F)cc2)COC12CCN(Cc1ccccc1)CC2 (single isomer, unassigned; (-))

>  <measure.unit>
µM

>  <Ki>
2.23

$$$$
>  <molecule>
O=C1CC2(CCN(CCc3ccccc3)CC2)OCC1c1ccc(F)cc1 (centres undefined)

>  <measure.unit>
µM

>  <Ki>
14

$$$$

(Q) What measured Ki is associated with `O=C1CC2(CCN(CCc3ccccc3)CC2)OC=C1c1ccc(F)cc1` on Glutamate NMDA receptor?
(A) 1.69

###

molecular target: D(2) dopamine receptor (Homo sapiens, UniProt P14416); assay: Binding affinity towards dopamine D2 receptor using radiolabeled ligand [3H]spiperone
Sequence (P14416 whole entry): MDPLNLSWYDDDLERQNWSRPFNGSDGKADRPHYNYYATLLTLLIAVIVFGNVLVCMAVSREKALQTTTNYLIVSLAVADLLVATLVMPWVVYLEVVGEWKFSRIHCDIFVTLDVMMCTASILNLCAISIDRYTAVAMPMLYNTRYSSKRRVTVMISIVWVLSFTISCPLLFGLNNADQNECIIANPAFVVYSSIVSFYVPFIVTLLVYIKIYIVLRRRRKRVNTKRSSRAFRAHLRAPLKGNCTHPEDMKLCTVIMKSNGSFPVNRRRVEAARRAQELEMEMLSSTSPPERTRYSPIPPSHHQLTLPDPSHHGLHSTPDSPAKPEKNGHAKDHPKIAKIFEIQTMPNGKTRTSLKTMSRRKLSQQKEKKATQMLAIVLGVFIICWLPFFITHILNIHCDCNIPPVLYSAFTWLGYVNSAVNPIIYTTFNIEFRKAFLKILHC
property.label: pKi
The meaning of pKi here: minus log10 of the concentration in molar units.

(Q) Provide value of pKi for this record tested with D(2) dopamine receptor (Homo sapiens, UniProt P14416): O=C1CC2(CCN(CCc3ccccc3)CC2)OCC1c1ccc(F)cc1 (stereo not drawn)
(A) 5.82
